Measurement Target: T1, HLA-A*02:01 (human)
T1 construct: monomers captured on streptavidin plates; also called MHC class I
Test Protocol: UV peptide exchange ELISA
For each record, write down the corresponding peptide exchange yield.

# count of solved cases: 3
Recorded result, LLVEQPPLAGV , peptide exchange yield: 50 to 75%

Recorded result, KILDADIQL , peptide exchange yield: ≥ 75%

Recorded result, FLSSVTYNL , peptide exchange yield: 50 to 75%

Now consider a different binder.
Recorded result, TLLAEALVTV , peptide exchange yield: 50 to 75%
